Target: BK virus VP1 protein, genotype III (BK virus)
Assay: cell-based or functional assay
Strictly below 0.04 nM in EC50, pseudovirus neutralization: true (1). Otherwise: false (0).

Please review the entries below; each comes with its answer.
binder: 15C10 (antibody, V domains shown) VH: EVQLLESGGGLVQPGGSLRLSCAASGFTFSSFAMSWVRQAPGKGLEWVSGISASGGTTNYADSVKGRFTISRDNSKNTLYLQMSSLRAEDTAEYYCAKDRFLEWVEGFDPWGQGILVTVSP VL: DIQMTQSPSSLSASVGDRVTITCRASQSIGRFLIWYQQKPGKAPKLLLYATSSLQSGVPARFTGSGSGTDFTLTIGSLQPEDFATYYCQQSYITPLTFGGGTKVEIK
label: true (1)

binder: 5A8 (antibody, V domains shown) VH: QVQLVESGGDLVKPGGSLRLSCVASGFTFSDYYMNWIRLPPGRGLEWISYIDSSAGAIYYADSVKGRFTVSRDDAKKSLFLYMNSLRADDTAVYYCARERRDGHKIFDYWGPGTLVTVSS VL: DIVMTQSPDSLAVSLGERATINCKSSQNILYSSNNKNYLAWYQQKAGQPPKLLIFWSSTRESGVPDRFSGSGSGTDFTLTISSLQAEDVAVYYCHQYYSSPYNFGRGTTLEIK
label: true (1)

binder: 2B9 (antibody, V domains shown) VH: EVQLLESGGGLAQPGKSLRLSCAASGFTFSGFAMSWVRQAPGKGLEWVSGISGSGDITYYADSVKGRFTISRDNSKSTLYLQMNSLGAEDTAVYYCAKDPYNWNHGVYGMDVWGQGTTVTVSS VL: DIQMTQSPSSLSASVGDRVTITCRASQSISSYLNWYQQKPGKAPKFLIYGASSLQSGVPSRFSGSGSGTDFTLTISSLQPEDFAAYYCQQSFNAPLTFGGGTKVEIK
label: false (0)

Switching to the query record.
Threshold test, EC50, pseudovirus neutralization < 0.04 nM: 2F7 (antibody, V domains shown) VH: QVQLVESGGGLVKPGGSLRLSCVASGFTFSDYYMNWIRLPPGRGLQWISYIDSSAGAIYYADSVKGRFTVSRDDAKNSLYLQMNSLRADDTAVYYCARERRDGHKIFDWWGQGTLVTVSS VL: DIVMTQSPDSLAVSLGERATINCKSSQNILYTSNNKNYLGWYQQKAGQPPKLLIYWSSTRNSGVPDRFSGSGSGTDFTLTISSLQAEDVAVYYCHQYYSSPYTFGQGTNLEIK
true (1)
